Assign T/C to each entry below.
- System: L1210 leukemia ip in BDF1 mice, survival T/C
- protocolDescription: NCI In Vivo Anticancer Drug Screen. Data for tumor model L1210 Leukemia (intraperitoneal) in B6D2F1 (BDF1) mice
- conditionParameters: endpoint: mean survival time; dose: 50.0 mg/kg/injection; schedule: Q01DX001 (ip); vehicle: saline; higher = longer survival
Toxic doses and inconclusive results are not listed.

Count: 6. Required value per item: T/C.
1. O=C(NOS(=O)(=O)O)c1ccccc1
2. Cn1c(=O)c2[nH]c(C3CC4C5CCC(C5)C4C3)nc2n(C)c1=O (stereo unspecified)
3. CC[N+](CC)(CC)Cc1ccccc1 (tested in a mixture with another compound)
4. COc1ccc(C(C)(C)C#N)cc1
5. CNC(=O)NC(C)(C)CCCCC(C)(C)NC(=O)NC
6. COc1ccc(OC)c2c(C)c(C)[nH]c12

99 % of control
100 % of control
112 % of control
102 % of control
104 % of control
98 % of control

====

Exercise: state measured T/C for each of the compounds provided.
- System: L1210 leukemia ip in BDF1 mice, survival T/C
- protocolDescription: NCI In Vivo Anticancer Drug Screen. Data for tumor model L1210 Leukemia (intraperitoneal) in B6D2F1 (BDF1) mice
- conditionParameters: endpoint: mean survival time; dose: 400.0 mg/kg/injection; schedule: Q01DX001 (ip); vehicle: saline with Tween-80; higher = longer survival
Inconclusive results and toxic doses are left out.

Give measured T/C for every item shown.
1. OC1(c2ccccc2)c2cscc2C(O)(c2ccccc2)c2c(Cl)sc(Cl)c21 (configuration not stated)
2. CCOc1ccccc1/C=C1\C=C(CC)SC1=O
3. CCCCCCC(C)C1CCCCC1 (configuration not stated)
4. Fc1ccc(CC(F)(F)F)cc1

1: 87 % of control; 2: 91 % of control; 3: 93 % of control; 4: 98 % of control

Fill in T/C for each of the 5 compounds listed.
1. Nc1nc(NCCCc2ccccc2)c(N=Nc2ccccc2)c(=O)[nH]1
2. CC1=C(C)C23OCC(CO2)CC3=C(C)C1=O
3. CCOC(=O)Nc1ccc([N+](=O)[O-])cc1[N+](=O)[O-]
4. Cc1ccccc1C(O)c1ccccc1Cl (configuration not stated)
5. Cc1cc(C)c(NC(=S)NC(=O)/C=C/c2ccccc2)c(C)c1

1. 104 % of control
2. 104 % of control
3. 95 % of control
4. 94 % of control
5. 97 % of control

Field: T/C. Fill in for each record below.
1. CCOC(=O)/C=C(\C)Nc1ncc(Br)cc1Br
2. O=C1c2cscc2C(=O)c2sccc21

89 % of control
96 % of control

Value lookup for T/C; key = "Cc1c(Cl)cccc1NC(=S)NC(=O)/C=C/c1ccccc1" 93 % of control

====

Assign T/C to each entry below.
- Tested on: L1210 leukemia ip in BDF1 mice, survival T/C
- protocolDescription: NCI In Vivo Anticancer Drug Screen. Data for tumor model L1210 Leukemia (intraperitoneal) in B6D2F1 (BDF1) mice
- conditionParameters: endpoint: mean survival time; dose: 100.0 mg/kg/injection; schedule: Q04DX003 (ip); vehicle: saline; higher = longer survival
Toxic doses and inconclusive results are not listed.

O=C(O)c1c(Cl)c([N+](=O)[O-])cc([N+](=O)[O-])c1Cl; 103 % of control
CC(=O)NCCOc1ccc(N)cc1; 104 % of control
O=C1NCCc2c1[nH]c1ccccc21; 101 % of control
CN=C1N[N+]2=C(C)CCCC2S1 (configuration not stated); 95 % of control
CCC1(C)NC(=O)NC1=O (configuration not stated); 106 % of control
N#CCCN1CCN(CCC#N)CC1; 96 % of control

Consider the record given below.
GET /values?readout=T/C&item= "COc1cc(OC)c(Cl)c(OC)c1" 101 % of control

====

Task for the reader: assign each of the following molecules its reported T/C.
- Tested on: L1210 leukemia ip in BDF1 mice, survival T/C
- protocolDescription: NCI In Vivo Anticancer Drug Screen. Data for tumor model L1210 Leukemia (intraperitoneal) in B6D2F1 (BDF1) mice
- conditionParameters: endpoint: mean survival time; dose: 400.0 mg/kg/injection; schedule: Q04DX002 (ip); vehicle: Klucel (hydroxypropylcellulose) (HPC); higher = longer survival
Toxic doses and inconclusive results are not listed.

CCOC(=O)c1c(-c2ccc([N+](=O)[O-])cc2)cn(-c2ccccc2)c1C; 87 % of control
O=C(Oc1ccccc1)Oc1ccccc1; 96 % of control
O=C(CBr)c1ccc(Br)cc1; 92 % of control
CCC(C)(C)C(=O)OCc1ccccc1; 103 % of control
N#Cc1c(N)[n+]([O-])c2c([n+]1[O-])CCCC2; 87 % of control

// for each molecule in input: emit T/C
1. COC1OC2COCOC2C(OS(=O)(=O)c2ccc(C)cc2)C1OS(=O)(=O)c1ccc(C)cc1 (configuration not stated)
2. O=C1CC2CCCC(C1)S2

92 % of control
86 % of control

====

- System: L1210 leukemia ip in BDF1 mice, survival T/C
- protocolDescription: NCI In Vivo Anticancer Drug Screen. Data for tumor model L1210 Leukemia (intraperitoneal) in B6D2F1 (BDF1) mice
- conditionParameters: endpoint: mean survival time; dose: 100.0 mg/kg/injection; schedule: Q01DX009 (ip); vehicle: saline; higher = longer survival
Inconclusive results and toxic doses are left out.
reportedMetric: T/C

O=C(O)/C=C\C(=O)NNC(=O)/C=C\C(=O)O; 100 % of control
CC(=O)OC1CCCOC1OC(C)=O (stereo not drawn); 106 % of control

Note: attention shifts to another entry.
Which value of T/C has been reported for "S=Cc1cccc2c1CCCC2" in the records? 111 % of control

====

Assign T/C to each entry below.
- System: L1210 leukemia ip in BDF1 mice, survival T/C
- protocolDescription: NCI In Vivo Anticancer Drug Screen. Data for tumor model L1210 Leukemia (intraperitoneal) in B6D2F1 (BDF1) mice
- conditionParameters: endpoint: mean survival time; dose: 200.0 mg/kg/injection; schedule: Q01DX001 (ip); vehicle: saline with Tween-80; higher = longer survival
Inconclusive results and toxic doses are left out.

CC1=C(C)C23OCC(CO2)CC3=C(C)C1=O; 122 % of control
O=S1(=O)C=CC(Br)C1 (stereo not drawn); 101 % of control

Enter reported T/C observed with L1210 leukemia ip in BDF1 mice, survival T/C for "O=c1cc[nH]c2ccccc12" 97 % of control

====

- Tested on: L1210 leukemia ip in BDF1 mice, survival T/C
- protocolDescription: NCI In Vivo Anticancer Drug Screen. Data for tumor model L1210 Leukemia (intraperitoneal) in B6D2F1 (BDF1) mice
- conditionParameters: endpoint: mean survival time; dose: 400.0 mg/kg/injection; schedule: Q04DX003 (ip); vehicle: saline with Tween-80; higher = longer survival
Toxic doses and inconclusive results are not listed. Peptide text beside a SMILES is read from it. * marks the point of attachment. Bn = c1ccc(C*)cc1; For = O=C*
reportedMetric: T/C

Study these solved cases before continuing.
Cc1ccc(NC(=O)C2C3C=CC(C3)C2C(=O)Nc2ccc(C)cc2)cc1 (configuration not stated); 91 % of control
CC(C)CC(NC(=O)C(Cc1ccc(OCc2ccccc2)cc1)NC=O)C(=O)O (configuration not stated) (For-Tyr(Bn)-Leu-OH; configuration not given here); 92 % of control
O=c1[nH]c(=O)n(Cc2ccccc2)cc1Cc1ccccc1; 101 % of control
CC(C)C1CC2CCC3C(C)(C(=O)O)CCCC3(C)C2CC1CO (configuration not stated); 93 % of control
CCCCN1C(=O)c2cccnc2C1=O; 95 % of control

Required: T/C, one value per molecule below.
1. CC(=O)c1c(C)n(C)c2ccccc12
2. CCCCNC(=O)C1C2C=CC(C2)C1C(=O)NCCCC (configuration not stated)
3. COc1cc(C)c(OC)cc1C
4. COc1ccccc1NC1=C(NC(C)=O)C(=O)c2ccccc2C1=O
5. Cc1cc(C)c(NC(=S)NC(=O)/C=C/c2ccccc2)c(C)c1

93 % of control
91 % of control
94 % of control
97 % of control
91 % of control

====

- Tested on: L1210 leukemia ip in BDF1 mice, survival T/C
- protocolDescription: NCI In Vivo Anticancer Drug Screen. Data for tumor model L1210 Leukemia (intraperitoneal) in B6D2F1 (BDF1) mice
- conditionParameters: endpoint: mean survival time; dose: 100.0 mg/kg/injection; schedule: Q04DX003 (ip); vehicle: saline with Tween-80; higher = longer survival
Toxic doses and inconclusive results are not listed.
reportedMetric: T/C

Answered cases to consult:
C#CCSC(=S)NNc1ccccc1; 101 % of control
Cn1c(=O)n2n(c1=O)C1C=CC2C2C(Br)C(Br)C21 (centres undefined); 102 % of control
O=[N+]([O-])c1ccc(OCc2ccccc2)cc1; 96 % of control
Oc1ccccc1C=Nc1ccc(I)cc1.Oc1ccccc1C=Nc1ccc(I)cc1.[Co]; 96 % of control
O=[N+]([O-])c1ccc(N/N=C(\Oc2ccccc2)c2ccc([N+](=O)[O-])cc2)cc1; 94 % of control

Provide each entry's T/C from the list below.
1. N=C1c2ccccc2-c2ccccc21
2. CCC(C)NC(=O)Nc1cccc(Cl)c1C (centres undefined)
3. Cc1cc(N(CCCOS(C)(=O)=O)CCCOS(C)(=O)=O)ccc1C=Nc1cccc(Cl)c1

1: 96 % of control; 2: 90 % of control; 3: 97 % of control

List the reported T/C of each compound below.
1. O=C1NC2NC(=O)NC2N1 (centres undefined)
2. CC1(c2cccs2)C(=O)NC(=O)N1C(=O)CCl (centres undefined)
3. CC(C)(Br)C(=O)c1ccc(Cl)s1
4. NC(=S)N/N=C\C(c1ccccc1)c1ccccc1

112 % of control
103 % of control
96 % of control
96 % of control

For each of the items listed, what is its T/C?
1. CCC1CCCCC1=O (centres undefined)
2. O=C(Nc1cccc([N+](=O)[O-])c1)Oc1ccc(-c2ccccc2)cc1
3. NC(=O)C1CCCCC1C(N)=O (centres undefined)
4. CCN(CC)C(=O)Cn1cc(F)c(=O)[nH]c1=O
5. c1ccc(-c2cc(-c3ccccc3)[s+]s2)cc1
6. NC(CCC(=O)Nc1cccc2ccccc12)C(=O)O (centres undefined)

1. 110 % of control
2. 93 % of control
3. 96 % of control
4. 98 % of control
5. 113 % of control
6. 105 % of control

Suppose we examine the compound "Cc1ncc2c(=O)n(-c3ccc([N+](=O)[O-])cc3)[nH]c2n1" ; what T/C value has been reported? 108 % of control
